- MEASUREMENT CONDITIONS: in ethyl acetate, 288.15 K
ATTRIBUTE MEASURED: solubility (mole fraction)
Quick one: just the number, no unit, thanks!

stdin: Which solubility (mole fraction) is reported for this compound? "Cc1ccc2cc(Br)ccc2n1"
stdout: 0.0101

====

- MEASUREMENT CONDITIONS: in ethanol, 288.15 K
ATTRIBUTE MEASURED: solubility (mole fraction)
Quick one: just the number, no unit, thanks!

stdin: Which solubility (mole fraction) is reported for this compound? "Cc1ccc2cc(Br)ccc2n1"
stdout: 0.00131

====

- MEASUREMENT CONDITIONS: in ethanol, 298.15 K
ATTRIBUTE MEASURED: solubility (mole fraction)
Quick one: just the number, no unit, thanks!

stdin: Which solubility (mole fraction) is reported for this compound? "Cc1ccc2cc(Br)ccc2n1"
stdout: 0.00179

====

- MEASUREMENT CONDITIONS: in acetonitrile, 293.15 K
ATTRIBUTE MEASURED: solubility (mole fraction)
Quick one: just the number, no unit, thanks!

stdin: Which solubility (mole fraction) is reported for this molecule? "Cc1ccc2cc(Br)ccc2n1"
stdout: 0.00974

====

- MEASUREMENT CONDITIONS: in acetonitrile, 278.15 K
ATTRIBUTE MEASURED: solubility (mole fraction)
Quick one: just the number, no unit, thanks!

stdin: Which solubility (mole fraction) is reported for this molecule? "Cc1ccc2cc(Br)ccc2n1"
stdout: 0.00648

====

- MEASUREMENT CONDITIONS: in ethyl acetate, 318.15 K
ATTRIBUTE MEASURED: solubility (mole fraction)

stdin: Which solubility (mole fraction) is reported for this compound? "Cc1ccc2cc(Br)ccc2n1"
stdout: 0.0255

====

- MEASUREMENT CONDITIONS: in DMF, 288.15 K
ATTRIBUTE MEASURED: solubility (mole fraction)
Quick one: just the number, no unit, thanks!

stdin: Which solubility (mole fraction) is reported for this compound? "Cc1ccc2cc(Br)ccc2n1"
stdout: 0.00765

====

- MEASUREMENT CONDITIONS: in DMF, 323.15 K
ATTRIBUTE MEASURED: solubility (mole fraction)
Quick one: just the number, no unit, thanks!

stdin: Which solubility (mole fraction) is reported for this compound? "Cc1ccc2cc(Br)ccc2n1"
stdout: 0.0222

====

- MEASUREMENT CONDITIONS: in isopropanol, 298.15 K
ATTRIBUTE MEASURED: solubility (mole fraction)

stdin: Which solubility (mole fraction) is reported for this compound? "Cc1ccc2cc(Br)ccc2n1"
stdout: 0.00375

====

- MEASUREMENT CONDITIONS: in n-propanol, 293.15 K
ATTRIBUTE MEASURED: solubility (mole fraction)
Quick one: just the number, no unit, thanks!

stdin: Which solubility (mole fraction) is reported for this compound? "Cc1ccc2cc(Br)ccc2n1"
stdout: 0.00371

====

- MEASUREMENT CONDITIONS: in toluene, 313.15 K
ATTRIBUTE MEASURED: solubility (mole fraction)

stdin: Which solubility (mole fraction) is reported for this compound? "Cc1ccc2cc(Br)ccc2n1"
stdout: 0.0248

====

- MEASUREMENT CONDITIONS: in n-propanol, 278.15 K
ATTRIBUTE MEASURED: solubility (mole fraction)

stdin: Which solubility (mole fraction) is reported for this compound? "Cc1ccc2cc(Br)ccc2n1"
stdout: 0.00218

====

- MEASUREMENT CONDITIONS: in acetone, 318.15 K
ATTRIBUTE MEASURED: solubility (mole fraction)
Quick one: just the number, no unit, thanks!

stdin: Which solubility (mole fraction) is reported for this molecule? "Cc1ccc2cc(Br)ccc2n1"
stdout: 0.0237

====

- MEASUREMENT CONDITIONS: in water, 303.15 K
ATTRIBUTE MEASURED: solubility (mole fraction)
Quick one: just the number, no unit, thanks!

stdin: Which solubility (mole fraction) is reported for this molecule? "Cc1ccc2cc(Br)ccc2n1"
stdout: 1.54e-05

====

- MEASUREMENT CONDITIONS: in acetone, 278.15 K
ATTRIBUTE MEASURED: solubility (mole fraction)

stdin: Which solubility (mole fraction) is reported for this compound? "Cc1ccc2cc(Br)ccc2n1"
stdout: 0.00678

====

- MEASUREMENT CONDITIONS: in ethyl acetate, 278.15 K
ATTRIBUTE MEASURED: solubility (mole fraction)
Quick one: just the number, no unit, thanks!

stdin: Which solubility (mole fraction) is reported for this compound? "Cc1ccc2cc(Br)ccc2n1"
stdout: 0.0072

====

- MEASUREMENT CONDITIONS: in toluene, 318.15 K
ATTRIBUTE MEASURED: solubility (mole fraction)
Quick one: just the number, no unit, thanks!

stdin: Which solubility (mole fraction) is reported for this compound? "Cc1ccc2cc(Br)ccc2n1"
stdout: 0.0286

====

- MEASUREMENT CONDITIONS: in n-propanol, 283.15 K
ATTRIBUTE MEASURED: solubility (mole fraction)
Quick one: just the number, no unit, thanks!

stdin: Which solubility (mole fraction) is reported for this compound? "Cc1ccc2cc(Br)ccc2n1"
stdout: 0.00261

====

- MEASUREMENT CONDITIONS: in water, 288.15 K
ATTRIBUTE MEASURED: solubility (mole fraction)
Quick one: just the number, no unit, thanks!

stdin: Which solubility (mole fraction) is reported for this compound? "Cc1ccc2cc(Br)ccc2n1"
stdout: 9.62e-06

====

- MEASUREMENT CONDITIONS: in water, 313.15 K
ATTRIBUTE MEASURED: solubility (mole fraction)

stdin: Which solubility (mole fraction) is reported for this compound? "Cc1ccc2cc(Br)ccc2n1"
stdout: 2.13e-05

====

- MEASUREMENT CONDITIONS: in ethanol, 303.15 K
ATTRIBUTE MEASURED: solubility (mole fraction)
Quick one: just the number, no unit, thanks!

stdin: Which solubility (mole fraction) is reported for this compound? "Cc1ccc2cc(Br)ccc2n1"
stdout: 0.00213

====

- MEASUREMENT CONDITIONS: in DMF, 278.15 K
ATTRIBUTE MEASURED: solubility (mole fraction)
Quick one: just the number, no unit, thanks!

stdin: Which solubility (mole fraction) is reported for this molecule? "Cc1ccc2cc(Br)ccc2n1"
stdout: 0.00585

====

- MEASUREMENT CONDITIONS: in methanol, 293.15 K
ATTRIBUTE MEASURED: solubility (mole fraction)
Quick one: just the number, no unit, thanks!

stdin: Which solubility (mole fraction) is reported for this molecule? "Cc1ccc2cc(Br)ccc2n1"
stdout: 0.000372

====

- MEASUREMENT CONDITIONS: in isopropanol, 278.15 K
ATTRIBUTE MEASURED: solubility (mole fraction)
Quick one: just the number, no unit, thanks!

stdin: Which solubility (mole fraction) is reported for this compound? "Cc1ccc2cc(Br)ccc2n1"
stdout: 0.00191

====

- MEASUREMENT CONDITIONS: in acetonitrile, 283.15 K
ATTRIBUTE MEASURED: solubility (mole fraction)

stdin: Which solubility (mole fraction) is reported for this compound? "Cc1ccc2cc(Br)ccc2n1"
stdout: 0.00743

====

- MEASUREMENT CONDITIONS: in water, 298.15 K
ATTRIBUTE MEASURED: solubility (mole fraction)
Quick one: just the number, no unit, thanks!

stdin: Which solubility (mole fraction) is reported for this molecule? "Cc1ccc2cc(Br)ccc2n1"
stdout: 1.33e-05

====

- MEASUREMENT CONDITIONS: in n-propanol, 318.15 K
ATTRIBUTE MEASURED: solubility (mole fraction)
Quick one: just the number, no unit, thanks!

stdin: Which solubility (mole fraction) is reported for this compound? "Cc1ccc2cc(Br)ccc2n1"
stdout: 0.0079

====

- MEASUREMENT CONDITIONS: in n-propanol, 308.15 K
ATTRIBUTE MEASURED: solubility (mole fraction)
Quick one: just the number, no unit, thanks!

stdin: Which solubility (mole fraction) is reported for this molecule? "Cc1ccc2cc(Br)ccc2n1"
stdout: 0.00593

====

- MEASUREMENT CONDITIONS: in acetone, 308.15 K
ATTRIBUTE MEASURED: solubility (mole fraction)
Quick one: just the number, no unit, thanks!

stdin: Which solubility (mole fraction) is reported for this compound? "Cc1ccc2cc(Br)ccc2n1"
stdout: 0.0175

====

- MEASUREMENT CONDITIONS: in ethanol, 278.15 K
ATTRIBUTE MEASURED: solubility (mole fraction)
Quick one: just the number, no unit, thanks!

stdin: Which solubility (mole fraction) is reported for this compound? "Cc1ccc2cc(Br)ccc2n1"
stdout: 0.000938

====

- MEASUREMENT CONDITIONS: in isopropanol, 303.15 K
ATTRIBUTE MEASURED: solubility (mole fraction)
Quick one: just the number, no unit, thanks!

stdin: Which solubility (mole fraction) is reported for this molecule? "Cc1ccc2cc(Br)ccc2n1"
stdout: 0.00442
